Would you kindly list MFI for each of these binders?
System Name: T1, IL-12 (Human IL12 (His Tag)), Sino Biological Cat. No. CT-050-H08H-20 (human, UniProt P29460 23-328; P29459 23-219)
T1 construct: Bought His-tagged p35/p40 heterodimer
T1 sequence (looked up) 1: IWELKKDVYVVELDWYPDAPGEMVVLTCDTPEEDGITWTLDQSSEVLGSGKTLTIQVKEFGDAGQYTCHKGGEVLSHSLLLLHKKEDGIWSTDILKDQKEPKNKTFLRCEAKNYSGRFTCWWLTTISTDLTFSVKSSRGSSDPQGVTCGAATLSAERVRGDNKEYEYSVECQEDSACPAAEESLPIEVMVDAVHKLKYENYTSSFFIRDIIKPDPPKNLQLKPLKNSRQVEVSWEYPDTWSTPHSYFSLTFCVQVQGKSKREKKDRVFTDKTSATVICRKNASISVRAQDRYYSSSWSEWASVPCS
T1 sequence (looked up) 2: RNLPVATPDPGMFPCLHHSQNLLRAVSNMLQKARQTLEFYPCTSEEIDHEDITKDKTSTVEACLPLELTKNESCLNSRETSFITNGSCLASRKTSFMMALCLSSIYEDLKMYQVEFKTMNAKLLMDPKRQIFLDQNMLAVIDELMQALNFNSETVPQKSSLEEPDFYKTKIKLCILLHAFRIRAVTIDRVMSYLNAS
Method Notes: FACS competition, IL-12-His 20 nM on 293T-IL-12RB1&IL-23R cells, antibody 3.33 µg/mL
Give bare numbers.

| Binder | Property Measured | Readout Number |
| --- | --- | --- |
| ustekinumab (trade name Stelara) (antibody, V domains shown) VH: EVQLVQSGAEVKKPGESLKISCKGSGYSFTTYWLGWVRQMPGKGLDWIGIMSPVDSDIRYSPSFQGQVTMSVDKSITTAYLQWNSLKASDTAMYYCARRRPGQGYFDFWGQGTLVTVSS VL: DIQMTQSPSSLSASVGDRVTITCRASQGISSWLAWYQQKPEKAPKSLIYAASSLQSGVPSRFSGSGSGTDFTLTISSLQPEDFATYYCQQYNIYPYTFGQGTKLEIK | MFI | 29.7 |

Shift focus to the following entry.
INPUT: Quote MFI reported for H5L11 (antibody, human IgG1, kappa, V domains shown, IgG1/kappa) VH: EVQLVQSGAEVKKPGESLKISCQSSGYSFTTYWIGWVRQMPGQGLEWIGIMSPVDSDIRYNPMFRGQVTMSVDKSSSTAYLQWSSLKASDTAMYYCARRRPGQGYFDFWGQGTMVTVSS VL: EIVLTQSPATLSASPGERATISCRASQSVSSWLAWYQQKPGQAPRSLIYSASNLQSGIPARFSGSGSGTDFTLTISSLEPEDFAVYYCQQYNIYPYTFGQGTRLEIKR please.
OUTPUT: 42.2

The reported measurements were obtained from patent US20260217813A1.
